# system: Ferrochelatase, mitochondrial (Homo sapiens) (UniProt P22830)
# Sequence (P22830 whole entry, looked up): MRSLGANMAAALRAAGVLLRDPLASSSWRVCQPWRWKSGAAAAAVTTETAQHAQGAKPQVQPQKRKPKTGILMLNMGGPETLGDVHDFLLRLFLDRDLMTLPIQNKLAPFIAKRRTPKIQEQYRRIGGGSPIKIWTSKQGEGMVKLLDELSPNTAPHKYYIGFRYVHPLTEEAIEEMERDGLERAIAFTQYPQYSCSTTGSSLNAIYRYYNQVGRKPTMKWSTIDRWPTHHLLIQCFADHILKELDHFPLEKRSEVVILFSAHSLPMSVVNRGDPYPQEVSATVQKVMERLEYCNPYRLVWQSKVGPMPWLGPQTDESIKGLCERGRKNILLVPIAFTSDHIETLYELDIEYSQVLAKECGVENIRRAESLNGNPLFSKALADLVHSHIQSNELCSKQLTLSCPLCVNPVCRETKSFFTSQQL
# experiment-summary: FECH heme synthesis enzyme blockers – biochemical, purified FECH, Ni-mesoporphyrin absorbance, primary screen (AID 1671448)
# study-conditions: Ni-mesoporphyrin absorbance 550 nm, screened at 10 µM (by protocol)
In all, about 20,000 compounds went through this assay and about 660 (3.3%) were called active.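 How the source made its calls: active means enzyme reaction rate more than 3 SD below the solvent-only control wells on the same plate; inactive means the rest.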 Many of the other results were omitted from the sample, so actives are more common in it than they were.
Entry note: the call must match one of active, inactive

Worked cases, answers included:
CCOC(=O)CCc1c(C)nc2nc(CNc3ccccc3F)[nH]n2c1=O : active
COc1ccccc1C(=O)Nc1ccccc1Sc1c(C)c(C)nc2nc(-c3ccccc3)nn12 : inactive
Cc1ccnc(C(NC(=O)c2ccccc2-n2cncn2)C2CC2)c1 (configuration not stated) : inactive
Cc1cc(C)cc(CCC(=O)NC(C)c2n[nH]c(C)n2)c1 (configuration not stated) : inactive
Cc1ccc(C2=CC(c3ccc(F)cc3)n3nc(NC(=O)c4cccs4)nc3N2)cc1 (configuration not stated) : inactive
Cc1nnc(SCC(=O)N2CCC(C(O)C(C)C)CC2)s1 (configuration not stated) : inactive
Cc1ccc(S(=O)(=O)N2CCN(c3cc(-c4cccc(F)c4)ncn3)CC2)cc1C : inactive
O=C(Nc1nc2n(n1)C(c1ccccc1)C=C(c1ccc(Cl)cc1)N2)c1ccc(F)cc1 (configuration not stated) : inactive
CCc1ccc(NC(=O)CN2CCN(Cc3cccc(C)c3)S2(=O)=O)cc1 : active
Cc1nc(N2CCCCC2)ncc1C(=O)N1CCC2(CCN(C)C2)CC1 : inactive

Query: For Fc1ccc(-c2cc(CNc3nccc(C4CCCC4)n3)no2)cc1 , what call appears in the results of this test?
Reply: inactive

Query: Give the logged outcome of this assay for the following compound: O=C(Nc1nc2n(n1)C(c1c(F)cccc1Cl)C=C(c1ccccc1)N2)c1ccc(F)cc1 (configuration not stated)
Reply: inactive

Query: Status in this test for COC(C)(C)Cn1ccnc1-c1ccc(Oc2ncccn2)cc1 ?
Reply: inactive

Query: Could you kindly confirm the outcome this assay logged for NC(=O)c1cccc(CC2CCN(C(=O)CCc3cn4ccccc4n3)C2)c1 (configuration not stated) ?
Reply: inactive

Query: Hi, sorry to bother you, what did the test record for c1ccc(C2CCN(CCn3ccnc3C3CC3)C2)cc1 (configuration not stated) ?
Reply: inactive

Query: Any idea what this test logged for CCc1cccc(NS(=O)(=O)c2ccc3c(c2)CCN3C(=O)CCC(=O)N2CCOCC2)c1 ?
Reply: inactive

Query: Would you mind telling me which call this test gave CCOc1ccc(C(=O)N2CCN(S(=O)(=O)c3cc4c5c(c3)CCN5C(=O)CC4)CC2)cc1 ?
Reply: inactive

Query: Given Cc1cc(F)cc(-c2c(-c3ccccc3)ncn2CCN2CCC(O)CC2)c1 , state the outcome it received in this test.
Reply: active

----------
# system: Ferrochelatase, mitochondrial (Homo sapiens)
# experiment-summary: FECH heme synthesis enzyme blockers – biochemical, purified FECH, Ni-mesoporphyrin absorbance, primary screen (AID 1671448)
# study-conditions: Ni-mesoporphyrin absorbance 550 nm, screened at 10 µM (by protocol)
In all, about 20,000 compounds went through this assay and about 660 (3.3%) were called active.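 How the source made its calls: active means enzyme reaction rate more than 3 SD below the solvent-only control wells on the same plate; inactive means the rest.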 This excerpt belongs to a sample that is enriched for actives.
Thanks in advance; please answer with one of these: active, inactive

Some solved cases for reference:
CC(C)NC(=O)C1CCC(Cn2c(=O)c3sccc3n(CC(=O)NCc3ccco3)c2=O)CC1 (centres undefined) : inactive
O=C(O)CC1CNCCN(C(=O)c2cccc(Oc3ccccc3)c2)C1 (centres undefined) : inactive
Cc1noc(C)c1CN(C)Cc1ccc(C2CCCO2)s1 (centres undefined) : inactive
CCN(CC)c1nc(Nc2ccc(C)cc2)c2cnn(-c3ccccc3)c2n1 : inactive
Cc1cc(C)nc(SC(C)c2n[nH]c(Cc3ccccc3)n2)n1 (centres undefined) : inactive
COc1ccc(OC)c(S(=O)(=O)Nc2ccc(Sc3c(C)c(C)nc4ncnn34)cc2)c1 : inactive
CCCN(CCC)C(=O)C1CCCN(c2ncnc3c2nc2n3CCCCC2)C1 (centres undefined) : inactive
CCCCN(C)c1nc(Nc2ccc(OC)cc2)c2cnn(-c3ccccc3)c2n1 : active

Pending compound:
Query: What outcome does the record of this test show for COc1ccccc1-c1nc(Cn2c(=O)c3cnc(-c4ccc(Cl)cc4)nc3n(C)c2=O)c(C)o1 ?
Reply: inactive

----------
# system: Ferrochelatase, mitochondrial (Homo sapiens) (UniProt P22830)
# experiment-summary: FECH heme synthesis enzyme blockers – biochemical, purified FECH, Ni-mesoporphyrin absorbance, primary screen (AID 1671448)
# study-conditions: Ni-mesoporphyrin absorbance 550 nm, screened at 10 µM (by protocol)
In all, about 20,000 compounds went through this assay and about 660 (3.3%) were called active.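 How the source made its calls: active means enzyme reaction rate more than 3 SD below the solvent-only control wells on the same plate; inactive means the rest.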 Only a selection was taken, and actives are over-represented in it overall.
Mark one answer only. Choices: active, inactive

Query: Any idea what this test logged for CCN(CC)Cc1cnc2c(C(=O)N3CCC(Cn4cccn4)CC3)cnn2c1 ?
Reply: active

Query: // param item: O=C(CN1CCN(Cc2ccccc2Cl)S1(=O)=O)Nc1ccccc1Cl ; yields the recorded call
Reply: inactive

Query: Write down the call the test reported for this compound. Item: CCc1c(C)nc2ncnn2c1Sc1ccc(NC(=O)Nc2cccc(C)c2C)cc1
Reply: inactive

Query: Please state the recorded outcome for this compound: COCCNC(=O)C1(C)Cn2c(cc3ccsc32)C(=O)N1c1ccc(OC)cc1 (centres undefined)
Reply: inactive

Query: So what was the verdict on O=C(NCc1ccccc1)c1nc[nH]c1C(=O)NCc1cccc(C(F)(F)F)c1 in this test?
Reply: active

----------
# system: Ferrochelatase, mitochondrial (Homo sapiens)
# experiment-summary: FECH heme synthesis enzyme blockers – biochemical, purified FECH, Ni-mesoporphyrin absorbance, primary screen (AID 1671448)
# study-conditions: Ni-mesoporphyrin absorbance 550 nm, screened at 10 µM (by protocol)
The campaign covered roughly 20,000 compounds. About 660 (3.3%) were called active.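 Rule for the calls: active = enzyme reaction rate more than 3 SD below the solvent-only control wells on the same plate; inactive = the rest.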 For the sample, actives were picked, then their nearest neighbours and some compounds at random.
Pick one: true (1) (active), false (0) (inactive)

Solved entries:
CC(C)(C)c1ccc(-c2nc3nc(CNc4ccccc4Cl)cc(=O)n3[nH]2)cc1 : true (1)
Cc1cccc(CNC(=O)N2CCN(Cc3nc4cccnc4n3-c3ccc(F)cc3)CC2)c1 : false (0)
O=C1CC(c2cccnc2)c2cnn(CC3CC3)c2N1 (centres undefined) : false (0)
COCCN1CCCC(O)(CN2CCN(c3nc4ccccc4o3)CC2)C1=O (centres undefined) : false (0)
CCc1cc(Sc2ccc(NC(=O)Cc3cccs3)cc2)n2ncnc2n1 : false (0)
COc1ccccc1C(=O)Nc1nc2n(n1)C(c1ccc(F)cc1)C=C(c1ccccc1)N2 (centres undefined) : true (1)
COc1ccc(N2CCCS2(=O)=O)cc1NC(=O)COc1ccc(C)cc1 : false (0)
Cc1ccc(C)c(N2C(=O)N(Cc3cc(F)cc(F)c3)c3ccccc3S2(=O)=O)c1 : true (1)

Query: Returns: the outcome recorded for COCCNC(=O)Cn1c(C(=O)OC)cc2ccsc21 in this assay.
Reply: false (0)

Query: Recorded test outcome, item O=C(NCc1ccccc1)c1nc(N2CCOCC2)c2oc3ccccc3c2n1
Reply: false (0)

Query: Each molecule tested received a call. Report the one for c1ccc(-c2ccc(-c3nccn3CCN3CCOCC3)s2)cc1 .
Reply: false (0)

----------
# system: Ferrochelatase, mitochondrial (Homo sapiens) (UniProt P22830)
# experiment-summary: FECH heme synthesis enzyme blockers – biochemical, purified FECH, Ni-mesoporphyrin absorbance, primary screen (AID 1671448)
# study-conditions: Ni-mesoporphyrin absorbance 550 nm, screened at 10 µM (by protocol)
Screen size: about 20,000 compounds; about 660 (3.3%) were called active.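 The calls were made as follows: active = enzyme reaction rate more than 3 SD below the solvent-only control wells on the same plate; inactive = the rest.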 The sample holds actives, similar compounds and a random draw of the others, so the mix is not that of the screen.
Parameter call: string, one of active, inactive

CCOc1ccc(N2CC(NC(=O)CC)CC2=O)cc1 (centres undefined) : inactive

Query: Could you please tell me the result logged for Cc1cc(Sc2ccc(NC(=O)Nc3ccc(F)c(Cl)c3)cc2)n2ncnc2n1 in this assay?
Reply: inactive

Query: Please state the recorded outcome for this molecule: Cc1cccc(-c2ncc(CNCCNC(=O)c3ccccc3Cl)cn2)c1
Reply: inactive

Query: Field: outcome | Entry: O=C(NC(Cn1cccn1)c1ccccc1)c1cc2n(n1)CCNC2 (centres undefined)
Reply: inactive

Query: Status in this test for Cc1ccccc1CN1CCN(CC(=O)Nc2cccc(Cl)c2C)S1(=O)=O ?
Reply: active

Query: Lab log entry: COc1cccc(C(=O)N(Cc2nc3nc(C)cc(C)n3n2)c2ccccc2)c1 — outcome as called in the assay?
Reply: inactive

Query: What did the test return for Cn1nc(-c2ccccc2)c(-c2ccccc2)c(C(=O)Nc2ccc(S(N)(=O)=O)cc2)c1=O ?
Reply: inactive

Query: # outcome recorded in this test, key = CCCc1cc(=O)n2[nH]c(CNc3ccc(C)cc3C)nc2n1
Reply: inactive

Query: What did the test return for CCCNC(=O)NCC1CCCN(Cc2ccco2)C1 (centres undefined) ?
Reply: inactive
